Attribution: PubChem BioAssay (NCATS)

Assay: qHTS Screen of the MIPE 4.0 Collection Against Ewings Sarcoma (TC32) (AID 1259256); note: nearly all actives have a fitted effect of over 45% in size
Details: TC32 Ewing sarcoma viability, CellTiter-Glo, 48 h; series mostly up to 45.8 µM
Results filed as inconclusive are left out. Active and inactive are the calls of the source. Calls come from the whole dose curve; as a rule, active = well fitted inhibition curve with a large enough effect; inconclusive = small, poorly fitted or top-dose-only effect; inactive = no such curve, though single readings can be large or run the other way.
Just give me one of these, please: T (active), F (inactive)

| compound | assignedClass |
| --- | --- |
| CC(Cc1ccc(O)c(O)c1)(NN)C(=O)O (stereo unspecified) | T |
| Cn1cc(C=CC(=O)c2cccc(F)c2)cc1C=CC(=O)NO | T |
| Cc1cnc(NC(=O)Nc2cc(Br)c(C)cc2OC[C@@H]2CNCCO2)cn1 | T |
| CC(C)NC[C@@H](C(=O)N1CCN(c2ncnc3c2[C@H](C)C[C@H]3O)CC1)c1ccc(Cl)cc1 | T |
| NC(=O)Nc1cc(-c2ccc(CN3CCOCC3)cc2)sc1C(N)=O | T |
| O=C(O)C[C@H](O)C[C@H](O)C=Cc1c(C2CC2)nc2ccccc2c1-c1ccc(F)cc1 | T |
| O=c1c(O)c(-c2ccc(O)c(O)c2)oc2cc(O)ccc12 | T |
| C[C@H](NCc1ccc2c(c1)nc(NC(=O)c1ccc(-c3cn[nH]c3)s1)n2CCc1ccccc1)C(C)(C)C | T |
| CCCNC(=O)[C@H]1O[C@H]1C(=O)N[C@H](C(=O)N1CCC[C@@H]1C(=O)OC)C(C)CC (stereo partly specified) | T |
| CCOc1cc2ncc(C#N)c(Nc3ccc(OCc4ccccn4)c(Cl)c3)c2cc1NC(=O)C=CCN(C)C | T |

From here, focus on the item given below.
Dear all, I need the recorded test outcome for C=C1C[C@@]2(O)O[C@@]3(C[C@H]2C(C)C)[C@H](C)CC[C@H]13 , thank you. F

====

Assay: High-throughput drug toxicity screening in the BPDCN cell line Gen2.2 (AID 1224824);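 note: cells exposed to compounds for 48 h before reading; 100% = DMSO and 0% = bortezomib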
Details: Gen2.2 BPDCN cells; at 45.8 µM (top of the series) unless noted
Non-standard residues stand in square brackets, D forms with d. Residues, ends and D or L forms follow the SMILES beside them. *: point of attachment. Nva = CCC[C@H](N)C(=O)O; Cbz = O=C(OCc1ccccc1)*
Lab note: anything with cell viability, % of control (lower = more cytotoxic) below 40% is marked yes; values at 40% or higher are marked no.

| molecule | assignedClass |
| --- | --- |
| CC1(C)[C@H](O[C@H]2O[C@H](C(=O)O)[C@@H](O)[C@H](O)[C@H]2O[C@@H]2O[C@H](C(=O)O)[C@@H](O)[C@H](O)[C@H]2O)CC[C@@]2(C)[C@H]1CC[C@]1(C)[C@H]2C(=O)C=C2[C@H]3C[C@@](C)(C(=O)O)CC[C@]3(C)CC[C@]21C | no |

Just wondering, is cell viability, % of control (lower = more cytotoxic) of Nc1ccc(C(=O)Nc2cccc(-c3nc(N4CCOCC4)c4oc5ncccc5c4n3)c2)cn1 below 40%? yes

Just wondering, is cell viability, % of control (lower = more cytotoxic) of OCc1ccccc1O[C@@H]1O[C@H](CO)[C@H](O)[C@H](O)[C@H]1O below 40%? no

Just wondering, is cell viability, % of control (lower = more cytotoxic) of C[C@H](NCc1ccc(OCc2cccc(F)c2)cc1)C(N)=O below 40%? yes

Just wondering, is cell viability, % of control (lower = more cytotoxic) of CN1C(C(=O)Nc2ccccn2)=C(O)c2sc(Cl)cc2S1(=O)=O below 40%? no

Just wondering, is cell viability, % of control (lower = more cytotoxic) of COc1ccc(C(C)=O)c(O)c1 below 40%? no

Just wondering, is cell viability, % of control (lower = more cytotoxic) of O=C1NC(=O)[C@@H](c2cn3c4c(cccc24)CCC3)[C@H]1c1c[nH]c2ccccc12 below 40%? yes

Just wondering, is cell viability, % of control (lower = more cytotoxic) of COc1ccc2cc([S+]([O-])Cc3ncc(C)c(OC)c3C)nc2c1 below 40%? no

Just wondering, is cell viability, % of control (lower = more cytotoxic) of CCC[C@@H](C=O)NC(=O)[C@H](CC(C)C)NC(=O)[C@H](CC(C)C)NC(=O)OCc1ccccc1 (Cbz-Leu-Leu-[Nva]-aldehyde) below 40%? yes

Just wondering, is cell viability, % of control (lower = more cytotoxic) of O=C(O)c1ccc(Nc2ncc3c(n2)-c2ccc(Cl)cc2C(c2c(F)cccc2F)=NC3)cc1 below 40%? no

Just wondering, is cell viability, % of control (lower = more cytotoxic) of O=C(Nc1cccc(Nc2ncc(Br)c(NCCc3cnc[nH]3)n2)c1)N1CCCC1 below 40%? yes

Just wondering, is cell viability, % of control (lower = more cytotoxic) of N#Cc1cc(NC(=O)Nc2nnc(-c3ccncc3)s2)ccc1-c1cn[nH]c1 below 40%? no

====

Experiment: Quantitative High-Throughput drug screen in 47 multiple myeloma cell lines against the NCATS MIPE library collection: ARD_JJKsccE7 cell viability assay (AID 1918929;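 for viability: 100% = DMSO-only wells and 0% = media-only wells without cells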)
Conditions: ARD myeloma cell line viability, CellTiter-Glo, 48 h; series mostly up to 45.8 µM
Records with an inconclusive call do not appear. Activity calls are given as the source filed them. Calls follow the shape of the dose curve; as a rule, active = well fitted cell-killing curve with a large enough effect; inconclusive = small, poorly fitted or top-dose-only effect, or effect the other way; inactive = no such curve, though single readings can be large or run the other way.
Just give me one of these, please: active, inactive

| molecule | assignedClass |
| --- | --- |
| N[C@H]1CN(c2c(F)cc3c(=O)c(C(=O)O)cn(C4C[C@@H]4F)c3c2Cl)CC12CC2 (stereo partly specified) | inactive |
| CCNC(=O)Nc1ccc(-c2nc3c(c(N4CCOC[C@H]4C)n2)CCN(C2COC2)C3)cc1 | active |
| COC(=O)[C@@H]1[C@H]2C[C@@H]3c4[nH]c5ccccc5c4CCN3C[C@@H]2CC[C@@H]1O | inactive |
| CC(=O)O[C@@]12CO[C@H]1C[C@H](O)[C@@]1(C)C(=O)[C@H](O)C3=C(C)[C@@H](OC(=O)C(O)[C@@H](NC(=O)OC(C)(C)C)c4ccccc4)C[C@@](O)([C@@H](OC(=O)c4ccccc4)[C@@H]21)C3(C)C (stereo partly specified) | inactive |
| CN(N=O)C(=O)N[C@H]1C(O)OC(CO)[C@@H](O)[C@H]1O (stereo partly specified) | inactive |

Dear all, I need the recorded test outcome for CCCCOc1ccc(C(=O)Nc2ccc(F)cc2F)cc1 , thank you. inactive

====

Assay: qHTS profiling of the MIPE4 collection as inhibitors of Plasmodium falciparum (HB3) proliferation (AID 743347);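 note: plate controls were DMSO vehicle wells for no effect and artemisinin wells for full effect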
Details: P. falciparum HB3 in erythrocytes, SYBR Green DNA, 72 h; at 28.5 µM (top of the series) unless noted
measuredProperty: growth, % of control (% [at 57.5 µM])
Unit % [at 57.5 µM] implied. Number only.

| compound | valueUnit | growth, % of control |
| --- | --- | --- |
| COc1cc(C=CC(=O)CC(=O)C=Cc2ccc(O)c(OC)c2)ccc1O | % [at 57.5 µM] | 2.99 |
| C=C1CCC2[C@](C)(CO)C(O)CC[C@]2(C)C1CC=C1C(=O)OCC1O (some centres undefined) | % [at 57.5 µM] | 46.9 |

Now turn to the next compound.
Suppose we examine the compound CCN(CC)CCNC(=O)c1c(C)[nH]c(C=C2C(=O)Nc3ccc(F)cc32)c1C ; what growth, % of control value has been reported? 5.65

====

Assay: qHTS drug screen for cell cycle checkpoint inhibitors in PARPi-resistant BRCA-mutant ovarian cancer cell lines. (AID 1963452)
Conditions: PEO1/OlaR viability, CellTiter-Glo luminescence, 96 h; stronger effect = lower value
Non-standard residues stand in square brackets, D forms with d. Residues, ends and D or L forms follow the SMILES beside them. *: point of attachment. Nva = CCC[C@H](N)C(=O)O; Cbz = O=C(OCc1ccccc1)*
Lab note: anything with Z-AUC below -0.7 is marked 1; values at -0.7 or higher are marked 0.

| molecule | assignedClass |
| --- | --- |
| CC(C)Oc1ccc(C(=O)N[C@H](CNC(=O)CN(C)C)Cc2ccc(-c3cn4cccc([C@H](C)O)c4n3)cc2)cc1Cl | 1 |
| CC(O)(C#Cc1ccc2c(c1)N(c1nc(N)ncc1Cl)CC2)c1nccs1 (centres undefined) | 0 |
| Nc1nc(N)c2nc(-c3cccc(O)c3)c(-c3cccc(O)c3)nc2n1 | 0 |
| O=C(CCCCCCC(=O)Nc1cccnc1)NO | 0 |
| N#Cc1cc(NC(=O)Nc2nnc(-c3ccncc3)s2)ccc1-c1cn[nH]c1 | 0 |
| FC(F)c1nc2ccccc2n1-c1nc(N2CCOCC2)nc(N2CCOCC2)n1 | 1 |
| CCC[C@@H](C=O)NC(=O)[C@H](CC(C)C)NC(=O)[C@H](CC(C)C)NC(=O)OCc1ccccc1 (Cbz-Leu-Leu-[Nva]-aldehyde) | 1 |
| NC(=NCCCCCCN=C(N)N=C(N)Nc1ccc(Cl)cc1)N=C(N)Nc1ccc(Cl)cc1 | 0 |
| C=C[C@@H]1CN2CCC1C[C@H]2[C@H](O)c1ccnc2ccc(OC)cc12 (some centres undefined) | 0 |
| O=C(Nc1ccc(Oc2ccnc3[nH]ccc23)c(F)c1)c1cccn(-c2ccc(F)cc2)c1=O | 0 |

Just wondering, is Z-AUC of CCS(=O)(=O)Nc1ccc2[nH]c(O)c(C(=Nc3ccc(CN4CCCCC4)cc3)c3ccccc3)c2c1 below -0.7? 1

Just wondering, is Z-AUC of CCc1ccc(C(=O)Nc2cc(CN3CCN(C)CC3)cc(C(F)(F)F)c2)cc1C#Cc1cnc2ccnn2c1 below -0.7? 0

Just wondering, is Z-AUC of C[C@H](CCC(=O)O)[C@H]1CCC2C3C[C@H](O)[C@@H]4C[C@H](O)CC[C@]4(C)C3CC[C@@]21C (some centres undefined) below -0.7? 0
